Data credit: patent US20250368649A1

Consider the following molecules; for each one, report its inhibition at 0.1 µM.
system: H727 cells; assay: Inhibition of KRas-mediated phosphorylation of ERK (Cisbio HTRF pERK), H727 cells; assay type: cell-based; conditions: Homo sapiens, NCI-H727, single point at 100 nM, 3 hrs compound incubation

These recorded examples may help you get a feel for the data.
// inhibition at 0.1 µM lookup, key: CCc1c(F)ccc2cc(O)cc(N3CCc4c(nc(OC[C@@]56CCCN5C[C@H](F)C6)nc4N4CCCn5nc(N)c(Cl)c5C4)C3)c12 [Example 358] 72%

Suppose we examine the molecule CCc1c(F)ccc2cc(O)cc(N3CCc4c(nc(OC[C@@]56CCCN5C[C@H](F)C6)nc4N4CCCn5nc(C(=O)NC)c(OC)c5C4)C3)c12 [Example 320] ; what inhibition at 0.1 µM value has been reported? 70%

Consider the molecule shown here: CCCCN(C)C(=O)c1cc2n(n1)CCCN(c1nc(OC[C@@]34CCCN3C[C@H](F)C4)nc3c1CCN(c1cc(O)cc4ccc(F)c(CC)c14)C3)C2 [Example 496] What is its recorded inhibition at 0.1 µM? 71%

More entries:
Name the recorded inhibition at 0.1 µM for CCc1c(F)ccc2cc(O)cc(N3CCc4c(nc(OC[C@@]56CCCN5C[C@H](F)C6)nc4N4CCCn5nc(C(=O)N6CCC7CC6CN7)cc5C4)C3)c12 (stereo partly shown) [Example 235] . -5%
